Tested on: M2
Experiment: Inhibition of vagal-stimulation bradycardia in the rat (M1/M2 selectivity, heart)
Type: in vivo, Ratte
Conditions: rat, i.v., 5 min before electrical stimulation of the right vagus; dose reducing vagal bradycardia (M2) by 50%
parameter-measured: -log ED50 Herz

Value (-log ED50 Herz, M2) for record CCN(CC)CC1CCCCN1CC(=O)N1c2ccccc2C(=O)Nc2cccnc21 (centres unmarked) [E, reference compound] = 6,42 Mkg^-1

Value (-log ED50 Herz, M2) for record CN(CCC1CCCCCN1C)CC(=O)N1c2cc(Cl)ccc2C(=O)Nc2cccnc21 (centres unmarked) [C] = 7,5 Mkg^-1

Value (-log ED50 Herz, M2) for record CN(CCC1CCCCN1C)CC(=O)N1c2ccccc2C(=O)Nc2cccnc21 (centres unmarked) [A] = 7,48 Mkg^-1

Value (-log ED50 Herz, M2) for record Cc1ccc2c(c1)C(=O)Nc1cccnc1N2C(=O)CN(C)CCC1CCCCCN1C (centres unmarked) [D] = 7,67 Mkg^-1

Value (-log ED50 Herz, M2) for record CN(CCC1CCCCCN1C)CC(=O)N1c2ccccc2C(=O)Nc2cccnc21 (centres unmarked) [B] = 7,41 Mkg^-1

Sourced from patent EP0346744A1
